Experiment: Human HepG2 cell viability assay in 384 well format
Type: toxicity, cell-based
Set-up: dose 125 nL, time 70.5 hour; concentration not given beside the values
Details: HepG2 cells, read-out: Inhibition
Documented cytotoxicity at 70.5 h across a set of compounds
Endpoint Label: cytotoxicity at 70.5 h (%)

compound="Cc1cnn(CCC(=O)N2CCCC(c3nc(C)c(C)s3)C2)c1 (stereo unspecified)" unit_label=% reported_result=1.92
compound=COc1ccc2c(c1)CN(Cc1nc3c(cnn3C)c(=O)[nH]1)CC2 unit_label=% reported_result=45.5
compound=Fc1ccccc1CC1CCN(Cc2ccccn2)CC1 unit_label=% reported_result=-5.22
compound=Cc1ccc(-c2nc(CC3CCN(C)CC3)no2)cc1N1CCNC1=O unit_label=% reported_result=-7.33
compound="CN(C)Cc1ccc(CNC(=O)NCC2(C)CCCS2)cc1 (stereo unspecified)" unit_label=% reported_result=7.26
compound=CN(C1CCCCC1)S(=O)(=O)NC1CCN(c2ncccn2)CC1 unit_label=% reported_result=-7.52
compound=Cn1cccc1C(=O)N1CCCN(CCCc2ccccc2)CC1 unit_label=% reported_result=7.34
compound="Cc1nc(C)n(C2CCCN(C(=O)CCCc3ccccn3)C2)n1 (stereo unspecified)" unit_label=% reported_result=-7.71
compound=Cc1c(NC(=O)c2ccc(Br)cc2)c(C(=O)N(C)C)nn1C unit_label=% reported_result=-6.74
compound="CC(NC(=O)CCc1cccs1)c1nnc2n1CCC2 (stereo unspecified)" unit_label=% reported_result=-36.3
compound="O=C1CC(c2ccc(F)cc2)c2snc(C(=O)O)c2N1 (stereo unspecified)" unit_label=% reported_result=-10.3
compound="Cn1ccc(C(=O)N2CCCC2c2ccc3c(c2)OCCO3)cc1=O (stereo unspecified)" unit_label=% reported_result=-2.74
compound="COCC1CN(C(=O)Cc2ccc(F)cc2)Cc2ccnn2C1 (stereo unspecified)" unit_label=% reported_result=-5.52
compound=Cc1ccc(CNCc2ccc(N3CCC(CO)CC3)nc2)c(C)c1 unit_label=% reported_result=-5.56
compound="Cc1ccccc1-n1cc(CNC(=O)CC2C(=O)NCCN2C)cn1 (stereo unspecified)" unit_label=% reported_result=-1.91
compound="CC(C)COC(C)C(=O)N1CCCC1 (stereo unspecified)" unit_label=% reported_result=-7.16
compound=CCN1Cc2c(C(=O)NC(C)C)ncn2-c2ccccc2S1(=O)=O unit_label=% reported_result=-16.2
compound="Cc1cc(C(=O)N2CCCC(n3cncn3)C2)c(C)n1CC1CC1 (stereo unspecified)" unit_label=% reported_result=-2.26
compound=COc1ccnc(N2CCN(CC(=O)N3CCC(C)CC3)CC2)n1 unit_label=% reported_result=-13.2
compound=Cc1ccc(-c2cc(C(=O)O)sn2)cc1 unit_label=% reported_result=-15.1
compound=Cc1nc(CN2CCc3nc(NC(C)C)nc(C)c3C2)cs1 unit_label=% reported_result=-6.71
compound="Cc1cc(C)c2c(c1)C1(CC(=O)Nc3c1cnn3C(C)C)C(=O)N2 (stereo unspecified)" unit_label=% reported_result=-5.35
compound="O=C(NCCCO)C1CC(=O)N(c2n[nH]c3cccc(F)c23)C1 (stereo unspecified)" unit_label=% reported_result=1.35
compound="CC(Cn1cccn1)NCc1csc(-c2cccs2)n1 (stereo unspecified)" unit_label=% reported_result=-26
compound=CC(=O)c1c(C)nn(S(=O)(=O)c2ccc(Cl)cc2)c1C unit_label=% reported_result=3.92
compound="CSc1ncccc1C(=O)NCCC(O)c1ccco1 (stereo unspecified)" unit_label=% reported_result=1.61
compound=Cc1ccsc1C(=O)N1CCC(Nc2cccnc2)CC1 unit_label=% reported_result=-4.2
compound="COc1ccccc1-c1c[nH]c(C2CCCN2)n1 (stereo unspecified)" unit_label=% reported_result=-7.74
compound="CCOc1cc2c(cc1CNC(Cc1cccs1)c1nccs1)OCO2 (stereo unspecified)" unit_label=% reported_result=1.33
compound="CCn1cc(CN2CCCC(COc3ccc(F)cc3)C2)cn1 (stereo unspecified)" unit_label=% reported_result=12.1
compound="CCCC(C)NC(=O)CCN1C(=O)CCc2cc(F)ccc21 (stereo unspecified)" unit_label=% reported_result=2.38
compound="Cc1ccc(CN2CC(O)CN(C(=O)C3CC3)CC2=O)cc1 (stereo unspecified)" unit_label=% reported_result=-5.26
compound="Cc1ccc(NC(=O)C(C)n2ccc(C(F)(F)F)n2)nc1 (stereo unspecified)" unit_label=% reported_result=1.64
compound="O=C(CCNS(=O)(=O)c1cccnc1)N1CCOC(c2ccccc2)C1 (stereo unspecified)" unit_label=% reported_result=-13.3
compound="COCCC1COC2(CCN(C(=O)c3cccnc3)CC2)C1 (stereo unspecified)" unit_label=% reported_result=-13
compound=CCc1ccc2nc(C)cc(C(=O)N[C@@H]3CNC[C@H]3O)c2c1 unit_label=% reported_result=25.1
compound=Cc1cc(C)cc(C(=O)NCCS(=O)(=O)N2CCSCC2)c1 unit_label=% reported_result=20.5
compound=CC(C)(C)n1ncc2c(=O)n(CC(=O)NCc3ccccc3Cl)cnc21 unit_label=% reported_result=-0.0412
compound="CC(=O)N1CCCC(C(=O)NCCOc2cc(C)cc(C)c2)C1 (stereo unspecified)" unit_label=% reported_result=18
compound="Cc1csc(N(C)C(=O)C2CC(=O)N(c3ccccc3Cl)C2)n1 (stereo unspecified)" unit_label=% reported_result=4.48
compound="Cc1nc(C2CCCN2C(=O)Cn2cncn2)no1 (stereo unspecified)" unit_label=% reported_result=-9.87
compound="COCC(=O)N1CCC2(COCc3cnc(NCc4ccco4)nc32)C1 (stereo unspecified)" unit_label=% reported_result=-2.26
compound="Cc1cc(C)n(CC2(CNC(=O)C(c3ccc(F)cc3)N(C)C)CC2)n1 (stereo unspecified)" unit_label=% reported_result=-1.88
compound=CC(=O)c1ccc(Cl)c(Cl)c1OCC(=O)NC(C)C unit_label=% reported_result=-6.15
compound=CN(Cc1ccccc1CN1CCCC1)C(=O)c1c[nH]c(=O)[nH]1 unit_label=% reported_result=-10.8
compound=CC(=O)N1CCC(Cc2nccnc2-c2ccnn2C)CC1 unit_label=% reported_result=-2.74
